# tgt: Oxidized purine nucleoside triphosphate hydrolase (Homo sapiens)
readout_type: ΔTm (°C)

>>> val("c1cc(-c2cnc3[nH]ccc3c2)c2cc[nH]c2n1")
7.9

A. c1cncc(-c2ccnc3[nH]ccc23)c1
B. CNC(=O)c1cc2c(-c3cccnc3)ccnc2[nH]1
C. CCNC(=O)c1cc2c(N3CCOC[C@@H]3C)ccnc2[nH]1
I would appreciate it if you could sort these 3 compounds by ΔTm, starting from the smallest number. Form field (ranking): labels in requested order.
A, B, C
(A: 8.2 °C, B: 14.4 °C, C: 21 °C)

###

# test_name: Apparent permeability across basolateral to apical side in human Caco2 cells at 10 uM after 60 mins by LC-MS/MS analysis
# details: Caco-2
readout_type: Papp B→A at 1 h, 10 µM (×10⁻⁶ cm/s)

Recorded Papp B→A at 1 h, 10 µM, per entry:
>>> val("COC(C)(C)C1CCCN1c1ccnc2[nH]ncc12 (stereo unspecified)")
66
>>> val("c1ccc2c(c1)OCCN2c1ccnc2[nH]ccc12")
35
>>> val("CCNC(=O)c1cc2c(N3CCCC3c3ccccn3)ccnc2[nH]1 (stereo unspecified)")
72

I. O=C(NC1COC1)c1cc2c(N3CCCC3c3ccccn3)ccnc2[nH]1 (stereo unspecified)
II. O=C(NC1CC1)c1cc2c(N3CCCC3c3ccccn3)ccnc2[nH]1 (stereo unspecified)
Quick one: lower Papp B→A at 1 h, 10 µM, I or II ? # answer = label of selected item
I
(I: 46 ×10⁻⁶ cm/s, II: 76 ×10⁻⁶ cm/s)

###

# test_name: Drug metabolism in mouse liver microsomes at […] preincubated for 5 mins followed by NADPH addition measured after 30 mins by LC-MS/MS analysis
# Type: ADME, microsome
# details: read-out: Drug metabolism
readout_type: metabolised at 0.5 h (%)

>>> val("c1ccc2c(c1)OCCN2c1ccnc2[nH]ccc12")
100
>>> val("O=C(NC1CC1)c1cc2c(-c3cccc(Cl)c3)ccnc2[nH]1")
83
>>> val("O=C(NC1COC1)c1cc2c(N3CCCC3c3cccnc3)ccnc2[nH]1 (configuration not stated)")
29
>>> val("O=C(NC1CC1)c1cc2c(N3CCCC3c3ccccn3)ccnc2[nH]1 (configuration not stated)")
50

P. CCNC(=O)c1cc2c(N3CCCC3c3cccnc3)ccnc2[nH]1 (configuration not stated)
Q. O=C(NC1COC1)c1cc2c(N3CCCC3c3ccccn3)ccnc2[nH]1 (configuration not stated)
R. CCNC(=O)c1cc2c(N3CCCC3c3ccccc3)ccnc2[nH]1 (configuration not stated)
rank_up(items): orders items by reported metabolised at 0.5 h in ascending numerical order. Please, when replying, give the labels in the order that was requested.
Q, P, R

1. CCNC(=O)c1cc2c(N3CCOCC3C3CC3)ccnc2[nH]1 (configuration not stated)
2. CCNC(=O)c1cc2c(N3CCOCC3c3ccccc3)ccnc2[nH]1 (configuration not stated)
Of 1 and 2 , which shows the smaller metabolised at 0.5 h value? // respond with label for picked entry
1
(1: 48%, 2: 90%)

1. CCNC(=O)c1cc2c(N3CCCC3C(C)(C)OC)ccnc2[nH]1 (configuration not stated)
2. c1ccc(C2CCCN2c2ccnc3[nH]ncc23)cc1 (configuration not stated)
// select label with min value of measured metabolised at 0.5 h from [ 1 , 2 ] Refer to your chosen item by its label in the answer.
1

1. CCNC(=O)c1cc2c(N3CCCC3c3ccccn3)ccnc2[nH]1 (configuration not stated)
2. COC(C)(C)C1CCCN1c1ccnc2[nH]ncc12 (configuration not stated)
Could you tell me which of these two has the smaller metabolised at 0.5 h figure? First: 1 Second: 2 // respond with label for picked entry
1

a. CCNC(=O)c1cc2c(N3CCOC[C@@H]3C)ccnc2[nH]1
b. c1ccc(C2CCCN2c2ccnc3[nH]ccc23)cc1 (configuration not stated)
Hey, between a and b which has a smaller measured metabolised at 0.5 h? Respond using the label that marks the chosen record.
a
